Molecular target: PKR K410E (Homo sapiens, UniProt P30613, K410E)
Sequence (P30613 whole entry K410E): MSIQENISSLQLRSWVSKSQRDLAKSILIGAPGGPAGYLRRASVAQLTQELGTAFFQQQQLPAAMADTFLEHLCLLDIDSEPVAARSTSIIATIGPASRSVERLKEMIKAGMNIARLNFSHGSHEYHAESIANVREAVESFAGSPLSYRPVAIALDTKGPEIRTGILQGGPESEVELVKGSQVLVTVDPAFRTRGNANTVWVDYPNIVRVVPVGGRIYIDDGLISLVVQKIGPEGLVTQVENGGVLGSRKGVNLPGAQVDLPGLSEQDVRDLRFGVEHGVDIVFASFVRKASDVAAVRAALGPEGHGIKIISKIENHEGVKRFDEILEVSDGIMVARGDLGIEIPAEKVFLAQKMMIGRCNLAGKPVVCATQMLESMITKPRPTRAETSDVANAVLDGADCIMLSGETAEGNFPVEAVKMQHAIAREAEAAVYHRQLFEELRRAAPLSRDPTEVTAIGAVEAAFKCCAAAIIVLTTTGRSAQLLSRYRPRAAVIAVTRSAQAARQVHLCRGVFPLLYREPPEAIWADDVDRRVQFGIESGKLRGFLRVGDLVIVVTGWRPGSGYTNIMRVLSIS
Test: PKR Mutant Assay (K410E), LDH-coupled, absorbance 340 nm
Assay type: biochemical
Settings: mutant PKR K410E enzyme activation

| entry_smiles | AC50 |
| --- | --- |
| Cc1c2c(=O)n(Cc3cccc(N)n3)ncc2c2sc(Cc3cc[nH]n3)cn12 | < 300 nM |
| COc1cccc(Cn2ncc3c4nn(C)cc4n(C)c3c2=O)c1 | > 800 nM |
| COc1cccc(CN2Cc3c(n(C)c4cc(C)sc34)C2=O)c1 | > 800 nM |
| COc1cccc(Cn2ncc3c4cccc(Cc5ccccc5)c4n(C)c3c2=O)c1 | > 800 nM |
| Cc1c2c(=O)n(Cc3ccn(C)n3)ncc2n2cc(Cc3cc[nH]n3)sc12 | < 300 nM |
| CCc1ccc2c3cnn(Cc4cccc(OC)c4)c(=O)c3n(C)c2c1 | > 800 nM |
| Cc1cn2c(C)c3c(=O)n(Cc4ccn(C)n4)ncc3c2s1 | < 300 nM |
| Cn1c2cc(Cc3cscn3)sc2c2cnn(Cc3ccccn3)c(=O)c21 | < 300 nM |
| COc1cccc(Cn2ncc3c4cc(C(F)(F)F)ccc4n(C)c3c2=O)c1 | > 800 nM |
| COc1cccc(Cn2ncc3c4n[nH]cc4n(C)c3c2=O)c1 | > 800 nM |
| Cn1ccc(Cn2ncc3c4cc(Cc5cscn5)ncc4n(C)c3c2=O)n1 | < 300 nM |
| COc1cccc(Cn2ncc3c(c(C#CCO)n4cc(C)sc34)c2=O)c1 | 301 to 800 nM |
| Cn1cc(S(=O)(=O)c2ccc3c(c2)c2cnn(Cc4cccc(C(N)=O)c4)c(=O)c2n3C)cn1 | < 300 nM |
| COc1cccc(Cn2ncc3c(c(Br)n4cc(C)sc34)c2=O)c1 | < 300 nM |
| C=Cc1ccc2c(c1)c1cnn(Cc3cccc(OC)c3)c(=O)c1n2C | > 800 nM |
| Cn1c2ccc(S(C)(=O)=O)cc2c2cnn(Cc3cccc(C(N)=O)c3)c(=O)c21 | > 800 nM |

====

Target: PKR K410E (Homo sapiens, UniProt P30613, K410E)
Assay: PKR Mutant Assay (K410E), LDH-coupled, absorbance 340 nm
Assay type: biochemical
Conditions: mutant PKR K410E enzyme activation
Quick list: AC50 per entry.
reported_metric: AC50

| entry_smiles | reported_metric | reported_value |
| --- | --- | --- |
| Cn1cc(Cc2ccc3c4cnn(Cc5cccc(C(N)=O)c5)c(=O)c4n(C)c3c2)cn1 | AC50 | > 800 nM |
| Cn1c2ccc(S(=O)(=O)c3cc[nH]n3)cc2c2cnn(Cc3cccc(C(N)=O)c3)c(=O)c21 | AC50 | < 300 nM |
| COc1cccc(Cn2ncn3c(c(C)c4nc(C)sc43)c2=O)c1 | AC50 | > 800 nM |
| Cn1c2cc(S(=O)(=O)c3cc[nH]n3)ccc2c2cnn(Cc3cccc(C(N)=O)c3)c(=O)c21 | AC50 | > 800 nM |
| Cc1cn2c(s1)c(C)c1c(=O)n(Cc3cc[nH]n3)ncc12 | AC50 | > 800 nM |

====

Quick list: AC50 per entry.
Target: PKR K410E (Homo sapiens, UniProt P30613, K410E)
Test: PKR Mutant Assay (K410E), LDH-coupled, absorbance 340 nm
Assay type: biochemical
Conditions: mutant PKR K410E enzyme activation

| entry_smiles | system_under_test | AC50 |
| --- | --- | --- |
| Cn1ccc(Cn2ncc3c4ccc(Cc5cscn5)cc4n(C)c3c2=O)n1 | PKR K410E (Homo sapiens, UniProt P30613, K410E) | < 300 nM |
| Cn1c2cc(Cc3cccc4cn[nH]c34)sc2c2cnn(Cc3cscn3)c(=O)c21 | PKR K410E (Homo sapiens, UniProt P30613, K410E) | < 300 nM |
| Cc1c2c(=O)n(Cc3ccc4[nH]ncc4c3)ncc2c2sc(Cc3ccccn3)cn12 | PKR K410E (Homo sapiens, UniProt P30613, K410E) | < 300 nM |
| Cc1nc2c3cnn(Cc4ccccc4)c(=O)c3n(C)c2s1 | PKR K410E (Homo sapiens, UniProt P30613, K410E) | > 800 nM |
| COc1cccc(Cn2ncc3c4c(Br)cccc4n(C)c3c2=O)c1 | PKR K410E (Homo sapiens, UniProt P30613, K410E) | > 800 nM |
| C=Cc1ccc2c3cnn(Cc4cccc(OC)c4)c(=O)c3n(C)c2c1 | PKR K410E (Homo sapiens, UniProt P30613, K410E) | > 800 nM |
| COc1cccc(Cn2ncc3c4oc(C)nc4n(C)c3c2=O)c1 | PKR K410E (Homo sapiens, UniProt P30613, K410E) | > 800 nM |
| COc1cccc(Cn2ncc3c4cc(C#N)ccc4n(C)c3c2=O)c1 | PKR K410E (Homo sapiens, UniProt P30613, K410E) | > 800 nM |
| Cc1c2c(=O)n(Cc3cscn3)ncc2c2sc(Cc3cccc4c[nH]nc34)cn12 | PKR K410E (Homo sapiens, UniProt P30613, K410E) | < 300 nM |
| Cn1ccc(Cn2ncc3c4cc(Cc5cscn5)ccc4n(C)c3c2=O)n1 | PKR K410E (Homo sapiens, UniProt P30613, K410E) | > 800 nM |
| Cn1c2cc(S(C)(=O)=O)ccc2c2cnn(Cc3cccc(C(N)=O)c3)c(=O)c21 | PKR K410E (Homo sapiens, UniProt P30613, K410E) | 301 to 800 nM |
| COc1cccc(Cn2ncc3c4c(C)cccc4n(C)c3c2=O)c1 | PKR K410E (Homo sapiens, UniProt P30613, K410E) | > 800 nM |
| COc1cccc(Cn2ncc3c4ccc(Cc5ccccc5)cc4n(C)c3c2=O)c1 | PKR K410E (Homo sapiens, UniProt P30613, K410E) | > 800 nM |
| COC(=O)c1ccc2c(c1)c1cnn(Cc3cccc(OC)c3)c(=O)c1n2C | PKR K410E (Homo sapiens, UniProt P30613, K410E) | > 800 nM |
| Cn1c2cc(S(=O)(=O)c3ccccc3)ccc2c2cnn(Cc3cccc(C(N)=O)c3)c(=O)c21 | PKR K410E (Homo sapiens, UniProt P30613, K410E) | < 300 nM |
| Cc1c2c(=O)n(Cc3ccccn3)ncc2c2sc(Cc3cscn3)cn12 | PKR K410E (Homo sapiens, UniProt P30613, K410E) | < 300 nM |
| COc1cccc(Cn2ncc3c4nn(Cc5ccccc5)cc4n(C)c3c2=O)c1 | PKR K410E (Homo sapiens, UniProt P30613, K410E) | 301 to 800 nM |
| Cc1cccc(Cn2ncc3c4sc(Cc5ncco5)cc4n(C)c3c2=O)c1 | PKR K410E (Homo sapiens, UniProt P30613, K410E) | < 300 nM |
| COc1cccc(Cn2ncc3c4cccnc4n(C)c3c2=O)c1 | PKR K410E (Homo sapiens, UniProt P30613, K410E) | > 800 nM |
